experiment: log P by HPLC on reversed-phase (C18) columns, OECD Guideline 117; assay type: physicochemical; settings: reversed-phase (C18) HPLC column; acidic range, pH 2.7, 0.1% aqueous formic acid / acetonitrile; read-out: logP[a]
measure-name: chromatographic logP
Give a plain numeric answer without units written out.

Recorded chromatographic logP, per entry:
molecule: O=C(Nc1ccc2nc(-c3cccnc3)sc2n1)c1cccc([S+]([O-])C(F)(F)F)c1 (stereo not drawn) [Example 37]
chromatographic logP: 2.61
--
molecule: FC(F)(F)c1ccc2nc(-c3cccnc3)sc2n1 [Example 10]
chromatographic logP: 2.65

API: the following record is the query input.
Request: Read the entry Clc1ccc2nc(-c3cccnc3)sc2n1 [Example 40] and write its reported chromatographic logP.
Result: 2.26
